Tested on: DU-145 prostate
ASSAY_DETAILS: NCI-60 one-dose screen, 48 h
ASSAY_CONDITIONS: 10 µM unless noted
Compounds without any hit were thinned out: in the full panel of roughly 83,000, 20% have a hit. Activity calls are given as the source filed them. How the source made its calls: active means growth percent below 10; inactive means the rest.
Write down the outcome that applies. Available outcomes: T (active), F (inactive)

Worked set:
COc1ccc2nc(NNC(=O)c3cnccn3)c3cccn3c2c1 | T
COc1ccc(C2=Nc3c(N)ncnc3NC(c3ccc4c(c3)OCO4)C2)cc1 (configuration not stated) | F
O=C1/C(=C/c2ccc(Br)cc2)C=C(c2ccccc2)N1CCc1ccccc1 | F
N#CC1=C(c2ccc(Br)cc2)NC(SCC(=O)c2ccc(Br)cc2)NC1=O (configuration not stated) | F
CCOC(=O)c1c2ncccc2n2c(=O)n(-c3ccccc3C)nnc12 | F

Query: Hello, I am checking results. What call was entered for "COc1cc(/C=C/C(=O)c2ccc(Nc3nc(Nc4ccc(F)cc4)nc(Nc4ccc(Cl)cc4)n3)cc2)cc(OC)c1OC" ?
Result: F

Query: Same read-out for "CC(=O)c1nc(Nc2ccc(C)cc2)sc1C" ?
Result: F

Query: Same read-out for "CC/C=C1/C(=O)C=C[C@@H]1C/C=C\CCCC(=O)O" ?
Result: F

Query: Same read-out for "C=C(C)[C@@H]1CC[C@]2(C(=O)NC3CCCCC3)CC[C@]3(C)[C@H](CC[C@@H]4[C@@]5(C)CCC(=O)C(C)(C)[C@@H]5CC[C@]43C)[C@@H]12" ?
Result: F

Query: Same read-out for "COc1ccc2c(c1)C(=O)/C(=C/c1cccc(OCC(=O)Nc3nc(C)c(C)s3)c1)O2" ?
Result: T

Query: Same read-out for N#CC1=C(/N=C/c2ccccc2)Oc2c(ccc3ccccc23)C1c1ccccc1 (configuration not stated) ?
Result: F

Query: Same read-out for "Cc1ccc2nc(C)c(-c3nnc(SCc4ccc(C#N)cc4)o3)n2c1" ?
Result: F

---

Test system: NCI/ADR-RES ovarian
ASSAY_DETAILS: NCI-60 one-dose screen, 48 h
ASSAY_CONDITIONS: 10 µM unless noted
This is part of a sample that, as a whole, favours compounds with a hit. Of some 83,000 tested, about 20% had one in any assay. Activity calls are given as the source filed them. How the source made its calls: active means growth percent below 10; inactive means the rest.
Write down the outcome that applies. Available outcomes: active, inactive

Worked set:
CC(C)(C)c1ccc(/C=C/C(=O)Nc2ccc(O)cc2)cc1 | inactive
CCCCCc1nc2c(c3c1CCCC3)CCCC2 | inactive
Cc1ccc(N2CCN(C(=S)c3cccs3)CC2)cc1 | inactive
Cc1nn(-c2ccccc2)c2nc3c(c(-c4ccc(Cl)cc4)c12)CNC1(CCSCC1)N3 | inactive
CC1(C)OC2C(CO[Si](C)(C)C(C)(C)C)OC(n3c(I)c(C#C[Si](C)(C)C)c(=O)[nH]c3=O)C2O1 (centres undefined) | inactive
COc1cccc2c1C(=O)c1c(O)c3c(c(O)c1C2=O)CC(O)(/C(C)=N/NC(=O)CCCCC(=O)N/N=C(\C)C1(O)Cc2c(O)c4c(c(O)c2C(OC2CC(N)C(O)C(C)O2)C1)C(=O)c1c(OC)cccc1C4=O)CC3OC1CC(N)C(O)C(C)O1 (centres undefined) | inactive

Query: Hello, I am checking results. What call was entered for COc1ccc(Cl)cc1NC(=O)C(Br)C(Br)C(=O)O (centres undefined) ?
Result: active

Query: Same read-out for COc1cc(C2NC(=O)c3ccccc3N2)ccc1OCCCCCOc1c(OC)cc(C2=NOC(c3cc(OC)c(OC)c(OC)c3)C2)cc1OC (centres undefined) ?
Result: inactive

Query: Same read-out for "CCc1c2c(nc3ccc(OC(=O)OCc4ccc(B5OC(C)(C)C(C)(C)O5)cc4)cc13)-c1cc3c(c(=O)n1C2)COC(=O)[C@]3(O)CC" ?
Result: active

Query: Same read-out for COc1ccc(C2c3ccc4ccccc4c3Oc3nc(C)[nH]c(=O)c32)cc1 (centres undefined) ?
Result: inactive

Query: Same read-out for "NNC(=O)c1nc(N)n(-c2ccc(S(N)(=O)=O)cc2)n1" ?
Result: inactive
